tested on: L1210 leukemia ip in BDF1 mice, survival T/C; assay: NCI In Vivo Anticancer Drug Screen. Data for tumor model L1210 Leukemia (intraperitoneal) in B6D2F1 (BDF1) mice; settings: endpoint: mean survival time; dose: 100.0 mg/kg/injection; schedule: Q04DX003 (ip); vehicle: saline with Tween-80; higher = longer survival
Inconclusive results and toxic doses are left out.
Each record here notes measured T/C.

CCOC(=O)c1cnc2ccc(OC)cc2c1Cl
107 % of control
O=c1cc(-c2ccccc2)ss1
102 % of control
Cc1c(Cl)cccc1NC(=O)Nc1cccc(O)c1
101 % of control
Nc1ncc(Br)c2ccccc12
96 % of control
O=C(O)CNC(=O)Nc1ccccc1
100 % of control
Cc1ccc(NC(=O)Nc2cccc(Cl)c2C)cc1NC(=O)Nc1cccc(Cl)c1C
90 % of control

Ask | Kindly indicate its recorded T/C. Item: O=C1NOCC1NCc1c(O)ccc2ccccc12 (stereo not drawn)
Reply | 87 % of control

Ask | Dear colleague, please send me the reported T/C for CCCCCCCCCCCCCCCC(=O)N(CCCN)C(C)CCCN(CC)CC (stereo not drawn) when you can.
Reply | 97 % of control

----------
system: L1210 leukemia ip in BDF1 mice, survival T/C; assay: NCI In Vivo Anticancer Drug Screen. Data for tumor model L1210 Leukemia (intraperitoneal) in B6D2F1 (BDF1) mice; settings: endpoint: mean survival time; dose: 400.0 mg/kg/injection; schedule: Q04DX002 (ip); vehicle: Klucel (hydroxypropylcellulose) (HPC); higher = longer survival
Inconclusive results and toxic doses are left out.
readoutName: T/C

Sample answers from the record:
CC(c1ccccc1O)C1CCCCC1N=O (stereo not given)
98 % of control
COc1ccc(OC)c(-n2cccc2C(=O)O)c1
93 % of control
CC(C)(C)[CH2][Sn]([CH2]C(C)(C)C)([CH2]C(C)(C)C)[c]1ccc(-c2ccccc2)cc1
92 % of control
O=C(COc1ccc(Cl)cc1)OCCBr
102 % of control
O=C(Nc1cccc2ccccc12)C(Cl)Cl
93 % of control

For the next question, use this compound.
Ask | Specify T/C for CCCCCCC(O)C/C=C/CCCCCCCC(=O)O (stereo not given) and stop.
Reply | 86 % of control

----------
tested on: L1210 leukemia ip in BDF1 mice, survival T/C; assay: NCI In Vivo Anticancer Drug Screen. Data for tumor model L1210 Leukemia (intraperitoneal) in B6D2F1 (BDF1) mice; conditions: endpoint: mean survival time; dose: 6.25 mg/kg/injection; schedule: Q01DX009 (ip); vehicle: saline
Inconclusive results and toxic doses are left out. Cut-off read from the data, not from the text of the source: active = T/C of 150% or more; inactive = T/C below 125%.
// allowed return values: label 1 = active, label 0 = inactive

CCC[CH2][Sn](=[S])[CH2]CCC
label 0

Now for a further compound.
Ask | I'd appreciate the recorded outcome for C[n+]1ccc(C#N)c2ccccc21 from this test.
Reply | label 0

----------
T/C values, listed per item
tested on: L1210 leukemia ip in BDF1 mice, survival T/C; assay: NCI In Vivo Anticancer Drug Screen. Data for tumor model L1210 Leukemia (intraperitoneal) in B6D2F1 (BDF1) mice; settings: endpoint: mean survival time; dose: 100.0 mg/kg/injection; schedule: Q01DX009 (ip); vehicle: Klucel (hydroxypropylcellulose) (HPC); higher = longer survival
Inconclusive results and toxic doses are left out.

CN(C)CCC(O)(Cc1ccccc1)c1ccccc1 (stereo not given)
101 % of control

Ask | Return the recorded T/C value; entry: COc1ccc2c(c1)C=Cc1ccc(Cl)cc1N2
Reply | 97 % of control

Ask | Respond only with T/C recorded for O=C(Nc1cccc(C(F)(F)F)c1)C(Br)C(Br)c1ccccc1 (stereo not given)
Reply | 103 % of control
